Measurement Target: Glutathione S-transferase Mu 1 (Mus musculus) (UniProt P10649)
Test Method Notes: GST activity in the cytosols of the lung of ICR/Ha mice was determined by using 1-Chloro-2,4-dinitrobenzene as the substrate
Assay type: functional
Outcome Measure: Specific activity (uM min-1 (mg of protein)-1)

// known answers, use as guide
Problem: Give reported Specific activity (uM min-1 (mg of protein)-1) for C[C@@]12C=Cc3occc3C1CC[C@]13CC(O)C(CCC12)C3 (some centres not stated) (Glutathione S-transferase Mu 1 (Mus musculus) (UniProt P10649))
Result: 0.23

Problem: Give reported Specific activity (uM min-1 (mg of protein)-1) for CC1(O)C[C@@]23CCC4c5ccoc5C=C[C@@]4(C)C2CCC1C3 (some centres not stated) (Glutathione S-transferase Mu 1 (Mus musculus) (UniProt P10649))
Result: 0.24

Problem: Give reported Specific activity (uM min-1 (mg of protein)-1) for C[C@@]12C=Cc3occc3C1CC[C@]13CC(=O)C(CCC12)C3 (some centres not stated) (Glutathione S-transferase Mu 1 (Mus musculus) (UniProt P10649))
Result: 0.28

Problem: Give reported Specific activity (uM min-1 (mg of protein)-1) for C[C@@]12C=Cc3occc3C1CC[C@@]13CC(CCC12)C(O)(CO)C3 (some centres not stated) (Glutathione S-transferase Mu 1 (Mus musculus) (UniProt P10649))
Result: 0.29

Problem: Give reported Specific activity (uM min-1 (mg of protein)-1) for C[C@@]12C=Cc3occc3C1CC[C@]13CCC(CCC12)C3 (some centres not stated) (Glutathione S-transferase Mu 1 (Mus musculus) (UniProt P10649))
Result: 0.36

[1] C[C@@]12CCc3occc3C1CC[C@]13CCC(CCC12)C3 (some centres not stated)
[2] C[C@@]12CCc3occc3C1CC[C@]13CC(O)C(CCC12)C3 (some centres not stated)
Problem: Please indicate which entry, 1 or 2 , has the lower recorded Specific activity (uM min-1 (mg of protein)-1) value. Return value: the label identifying the chosen record.
Result: 2

====

Measurement Target: Glutathione S-transferase Mu 1 (Mus musculus)
Test Method Notes: Ratio is the compound /control(Specific activity in lung)
Format: functional
Outcome Measure: Ratio

Problem: Give reported Ratio for C[C@@]12C=Cc3occc3C1CC[C@]13CC(=O)C(CCC12)C3 (some centres not stated) (Glutathione S-transferase Mu 1 (Mus musculus))
Result: 1

Problem: Give reported Ratio for C[C@@]12CCc3occc3C1CC[C@]13CC(O)C(CCC12)C3 (some centres not stated) (Glutathione S-transferase Mu 1 (Mus musculus))
Result: 0.8

Problem: Give reported Ratio for CC1(O)C[C@@]23CCC4c5ccoc5CC[C@@]4(C)C2CCC1C3 (some centres not stated) (Glutathione S-transferase Mu 1 (Mus musculus))
Result: 1

Problem: Give reported Ratio for CC(=O)OC1C[C@@]23CCC4c5ccoc5CC[C@@]4(C)C2CCC1C3 (some centres not stated) (Glutathione S-transferase Mu 1 (Mus musculus))
Result: 1.1

Problem: Give reported Ratio for C[C@@]12C=Cc3occc3C1CC[C@]13CC(O)C(CCC12)C3 (some centres not stated) (Glutathione S-transferase Mu 1 (Mus musculus))
Result: 0.8

Problem: Give reported Ratio for CC1(O)C[C@@]23CCC4c5ccoc5C=C[C@@]4(C)C2CCC1C3 (some centres not stated) (Glutathione S-transferase Mu 1 (Mus musculus))
Result: 0.8

Problem: Give reported Ratio for C[C@@]12C=Cc3occc3C1CC[C@@]13CC(CCC12)C(O)(CO)C3 (some centres not stated) (Glutathione S-transferase Mu 1 (Mus musculus))
Result: 1

Problem: Give reported Ratio for C[C@@]12C=Cc3occc3C1CC[C@]13CCC(CCC12)C3 (some centres not stated) (Glutathione S-transferase Mu 1 (Mus musculus))
Result: 1.2

Problem: Give reported Ratio for C[C@@]12CCc3occc3C1CC[C@]13CCC(CCC12)C3 (some centres not stated) (Glutathione S-transferase Mu 1 (Mus musculus))
Result: 1.3

Problem: Give reported Ratio for CC(=O)OC1C[C@@]23CCC4c5ccoc5C=C[C@@]4(C)C2CCC1C3 (some centres not stated) (Glutathione S-transferase Mu 1 (Mus musculus))
Result: 1

Problem: Give reported Ratio for C[C@@]12CCc3occc3C1CC[C@@]13CC(CCC12)C(O)(CO)C3 (some centres not stated) (Glutathione S-transferase Mu 1 (Mus musculus))
Result: 1

Problem: Give reported Ratio for C[C@@]12CCc3occc3C1CC[C@]13CC(=O)C(CCC12)C3 (some centres not stated) (Glutathione S-transferase Mu 1 (Mus musculus))
Result: 1.1

====

Measurement Target: Glutathione S-transferase Mu 1 (Mus musculus)
Test Method Notes: Ratio is the compound /control(Specific activity in liver(GST))
Type: functional, tissue-based
Outcome Measure: Ratio

// known answers, use as guide
Problem: Specify reported Ratio for the compound shown: C[C@@]12C=Cc3occc3C1CC[C@]13CC(=O)C(CCC12)C3 (some centres not stated)
Result: 2.6

Problem: Specify reported Ratio for the compound shown: C[C@@]12CCc3occc3C1CC[C@]13CCC(CCC12)C3 (some centres not stated)
Result: 1.6

Problem: Specify reported Ratio for the compound shown: C[C@@]12CCc3occc3C1CC[C@]13CC(=O)C(CCC12)C3 (some centres not stated)
Result: 1.7

[A] C[C@@]12C=Cc3occc3C1CC[C@]13CC(O)C(CCC12)C3 (some centres not stated)
[B] CC1(O)C[C@@]23CCC4c5ccoc5CC[C@@]4(C)C2CCC1C3 (some centres not stated)
Problem: Please indicate which entry, A or B , has the lower recorded Ratio value. Return value: the label identifying the chosen record.
Result: B

[a] CC1(O)C[C@@]23CCC4c5ccoc5C=C[C@@]4(C)C2CCC1C3 (some centres not stated)
[b] C[C@@]12CC[C@@H]3OCC[C@@H]3C1CC[C@@]13CC(CCC12)[C@@](O)(CO)C3 (some centres not stated)
[c] CC(=O)OC[C@@]1(O)C[C@@]23CC[C@@H]4c5ccoc5CC[C@@]4(C)[C@@H]2CC[C@@H]1C3 [CAFESTOL ACETATE]
Problem: Put the items in sequence by Ratio, from largest down. In your reply, arrange the labels in the requested order.
Result: c, a, b

[1] C[C@@]12CCC3=C(CCO3)C1CC[C@@]13CC(CCC12)[C@@](O)(CO)C3 (some centres not stated)
[2] C[C@@]12C=Cc3occc3C1CC[C@@]13CC(CCC12)C(O)(CO)C3 (some centres not stated)
Problem: Please indicate which entry, 1 or 2 , has the lower recorded Ratio value. Return value: the label identifying the chosen record.
Result: 1

====

Measurement Target: Glutathione S-transferase Mu 1 (Mus musculus)
Sequence (whole entry): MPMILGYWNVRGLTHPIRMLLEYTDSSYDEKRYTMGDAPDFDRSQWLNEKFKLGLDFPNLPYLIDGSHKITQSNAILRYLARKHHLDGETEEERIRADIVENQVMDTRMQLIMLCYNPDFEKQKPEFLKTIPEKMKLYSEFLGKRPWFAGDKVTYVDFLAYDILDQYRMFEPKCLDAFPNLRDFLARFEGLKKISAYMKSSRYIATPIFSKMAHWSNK
Test Method Notes: GST activity in the cytosols of liver of ICR/Ha mice, using 1-Chloro-2,4-dinitrobenzene as substrate
Type: functional, tissue-based
Outcome Measure: Specific activity (uM min-1 (mg of protein)-1)

[a] C[C@@]12CCc3occc3C1CC[C@]13CC(O)C(CCC12)C3 (some centres not stated)
[b] C[C@@]12C=Cc3occc3C1CC[C@]13CC(=O)C(CCC12)C3 (some centres not stated)
Problem: Kindly identify which of a and b has the larger recorded Specific activity (uM min-1 (mg of protein)-1) value. Return value: the label identifying the chosen record.
Result: b
(b: 3.67, a: 2.54)

====

Test Method Notes: Ratio is the compound /control(SH level in liver)
Format: functional, Mus musculus
List of Ratio values.
Answer with the value's number alone.

// known answers, use as guide
Problem: Specify reported Ratio for the molecule shown: CC1(O)C[C@@]23CCC4c5ccoc5C=C[C@@]4(C)C2CCC1C3 (some centres not stated)
Result: 0.9

Problem: Specify reported Ratio for the molecule shown: CC(=O)OC[C@@]1(O)C[C@@]23CCC4C5=C(CC[C@@]4(C)C2CCC1C3)OCC5 (some centres not stated)
Result: 1.55

Problem: Specify reported Ratio for the molecule shown: CC(=O)OC1C[C@@]23CCC4c5ccoc5C=C[C@@]4(C)C2CCC1C3 (some centres not stated)
Result: 1.1

Problem: Specify reported Ratio for the molecule shown: C[C@@]12CCc3occc3C1CC[C@]13CC(=O)C(CCC12)C3 (some centres not stated)
Result: 1.8

Problem: Specify reported Ratio for the molecule shown: CC(=O)OC[C@@]1(O)C[C@@]23CC[C@@H]4c5ccoc5CC[C@@]4(C)[C@@H]2CC[C@@H]1C3 [CAFESTOL ACETATE]
Result: 1.41

---
Problem: Specify reported Ratio for the molecule shown: C[C@@]12C=Cc3occc3C1CC[C@]13CC(O)C(CCC12)C3 (some centres not stated)
Result: 1.1

Problem: Specify reported Ratio for the molecule shown: C[C@@]12CCc3occc3C1CC[C@]13CC(O)C(CCC12)C3 (some centres not stated)
Result: 1.7
